These data points were gathered from patent US20240182481A1.

# reported pIC50; entries follow
- System: monoubiquitinated PCNA
- METHOD_DESCRIPTION: AlphaLISA assay measuring monoubiquitinated PCNA in MDA-MB-436
- Assay type: cell-based
- RECORDED_CONDITIONS: Homo sapiens, read-out: Alpha LISA IC50
pIC50: −log10 of the molar value.

| MOLECULE | pIC50 |
| --- | --- |
| COc1ncccc1-c1ncc2[nH]cc(Cc3ccc(-c4nc(C(F)(F)F)cn4C)cc3)c2n1 | 6.60 to 7.00 |
| CC(C)c1ccccc1-c1ncc2[nH]cc(Oc3ccc(-c4nc(C(F)(F)F)cn4C)cc3)c2n1 | > 7.00 |
| COc1nccc(C2CC2)c1-c1ncc2[nH]nc(Cc3ccc(-c4nc(C(F)(F)F)cn4C)cc3)c2n1 | > 7.00 |
| Cn1cc(C(F)(F)F)nc1-c1ccc(Cc2c[nH]c3cnc(-c4cccnc4OC4CC4)nc23)cc1 | > 7.00 |
| COc1ncnc(C2CC2)c1-c1cc2c(Cc3ccc(-c4nc(C(F)(F)F)cn4C)cc3)c[nH]c2cn1 | > 7.00 |
| CC(C)c1ccccc1-c1ncc2[nH]cc(C(O)c3ccc(-c4nc(C(F)(F)F)cn4C)cc3)c2n1 (stereo not shown) | > 7.00 |
| CCOc1ncnc(C2CC2)c1-c1ncc2[nH]nc(Cc3ccc(-c4nc(C(F)(F)F)cn4C)cc3)c2n1 | > 7.00 |
| COc1ncnc(C2CC2)c1-c1ncc2[nH]nc(Cc3ccc(-c4nc(C(F)(F)F)cn4C)cc3C)c2n1 | > 7.00 |
| CC(C)c1ccccc1-c1ncc2[nH]cc(C(C)(O)c3ccc(-c4nc(C(F)(F)F)cn4C)cc3)c2n1 (stereo not shown) | > 7.00 |
| COc1ncnc(C2CC2)c1-c1ncc2[nH]cc(Cc3cc(F)c(-n4nc(C(F)(F)F)cc4C)c(F)c3)c2n1 | > 7.00 |
| CNCc1[nH]c2cnc(-c3c(OC)ncnc3C3CC3)nc2c1Cc1ccc(-c2nc(C(F)(F)F)cn2C)cc1 | 6.60 to 7.00 |
| COc1ncnc(C2CC2)c1-c1ncc2nn(C(C)C)c(Cc3ccc(-c4nc(C(F)(F)F)cn4C)cc3)c2n1 (single isomer, unassigned) | 6.60 to 7.00 |
| COc1ncnc(C2CC2)c1-c1ncc2c(n1)c(Cc1ccc(-n3nc(C#N)cc3C)cc1)cn2C | > 7.00 |

====

- System: monoubiquitinated PCNA
- METHOD_DESCRIPTION: AlphaLISA assay measuring monoubiquitinated PCNA in MDA-MB-436
- Assay type: cell-based
- RECORDED_CONDITIONS: Homo sapiens, read-out: Alpha LISA IC50
# reported IC50; entries follow

| COMPOUND | IC50 |
| --- | --- |
| COc1ncnc(C2CC2)c1-c1cc2c(Cc3ccc(-c4nc(C(F)(F)F)cn4C)cc3)n[nH]c2cn1 | < 100 nM |
| COc1ncnc(C2CC2)c1-c1ncc2c(n1)c(Cc1ccc(-c3nc(C(F)(F)F)cn3C)cc1)cn2S(C)(=O)=O | 100 to 250 nM |
| [2H]C([2H])([2H])n1nc(Cc2ccc(-c3nc(C(F)(F)F)cn3C)cc2)c2nc(-c3c(OC)ncnc3C3CC3)ncc21 | < 100 nM |
| COc1ncnc(C2CC2)c1-c1ncc2[nH]cc([C@@H](c3ccc(-c4nc(C(F)(F)F)cn4C)cc3)C(C)C)c2n1 (single isomer, unassigned) | < 100 nM |
| CN(C)c1ncccc1-c1ncc2[nH]cc(Cc3ccc(-c4nc(C(F)(F)F)cn4C)cc3)c2n1 | 250 to 10000 nM |
| COc1ncnc(C2CC2)c1-c1ncc2[nH]c(CN)c(Cc3ccc(-c4nc(C(F)(F)F)cn4C)cc3)c2n1 | 250 to 10000 nM |
| COc1ccnc(C2CC2)c1-c1ncc2[nH]cc(Cc3ccc(-c4nc(C(F)(F)F)cn4C)cc3)c2n1 | 100 to 250 nM |

====

Below are IC50 values recorded for USP1-UAF1 (Homo sapiens, UniProt O94782).
EXPERIMENTAL_ENDPOINT: IC50

| COMPOUND | OBSERVED_MEASUREMENT |
| --- | --- |
| Cn1cc(C(F)(F)F)nc1-c1ccc(Sc2c[nH]c3cnc(-c4ccccc4C(F)(F)F)nc23)cc1 | 0.1 to 10 µM |
| Cn1cc(C(F)(F)F)nc1-c1ccc(Nc2c[nH]c3cnc(-c4ccccc4C4CC4)nc23)cc1 | 0.1 to 10 µM |
| Cn1cc(C(F)(F)F)nc1-c1ccc(Cc2c[nH]c3cnc(-c4cccnc4C4CC4)nc23)cc1 | < 0.03 µM |
| CC(C)c1ccccc1-c1cc2c(Nc3ccc(-c4nc(C(F)(F)F)cn4C)cc3)c[nH]c2cn1 | 0.1 to 10 µM |
| CC(C)n1cc(C(F)(F)F)nc1-c1ccc(C(O)c2c[nH]c3cnc(-c4cccnc4OC(F)F)nc23)cc1 (centres unmarked) | 0.1 to 10 µM |
| CO[C@@H](c1ccc(-c2nc(C(F)(F)F)cn2C)cc1)c1c[nH]c2cnc(-c3c(OC(F)F)ncnc3C3CC3)nc12 (single isomer, unassigned) | 0.1 to 10 µM |
| COc1ncnc(C2CC2)c1-c1nc(C)c2[nH]nc(Cc3ccc(-c4nc(C(F)(F)F)cn4C)cc3)c2n1 | < 0.03 µM |
| COc1ncnc(C2CC2)c1-c1ncc2[nH]cc(C(O)c3ccc(-c4nc(C(F)(F)F)cn4C(C)C)cc3)c2n1 (centres unmarked) | 0.1 to 10 µM |
| Cn1cc(C(F)(F)F)nc1-c1ccc(Cc2n[nH]c3cnc(-c4c(OCF)ncnc4C4CC4)nc23)cc1 | < 0.03 µM |
| CCOc1cc(C(F)(F)F)nn1-c1ccc(Cc2n[nH]c3cnc(-c4c(OC)ncnc4C4CC4)nc23)cc1 | < 0.03 µM |
| COc1ncnc(C2CC2)c1-c1nc(Cl)c2[nH]cc(Cc3ccc(-c4nc(C(F)(F)F)cn4C)cc3)c2n1 | < 0.03 µM |
| COc1ncnc(C2CC2)c1-c1ncc2[nH]nc(Cc3ccc(-c4nc(C(F)(F)F)cn4C4CC4)cc3)c2n1 | < 0.03 µM |
| COc1ncnc(C2CC2)c1-c1ncc2nn(CC(F)(F)F)c(Cc3ccc(-c4nc(C(F)(F)F)cn4C)cc3)c2n1 | 0.1 to 10 µM |
| COc1nc(C)nc(C2CC2)c1-c1ncc2[nH]nc(Cc3ccc(-c4nc(C(F)(F)F)cn4C)cc3)c2n1 | 0.03 to 0.1 µM |

====

- Tested on: monoubiquitinated PCNA
- METHOD_DESCRIPTION: AlphaLISA assay measuring monoubiquitinated PCNA in MDA-MB-436
- Type: cell-based
- RECORDED_CONDITIONS: Homo sapiens, read-out: Alpha LISA IC50
pIC50: −log10 of the molar value.
EXPERIMENTAL_ENDPOINT: pIC50

| MOLECULE | OBSERVED_MEASUREMENT |
| --- | --- |
| Cn1cc(C(F)(F)F)nc1-c1ccc(Cc2c[nH]c3cnc(-c4c(C5CC5)ccnc4C4CC4)nc23)cc1 | 5.00 to 6.60 |
| CCOc1cc(C(F)(F)F)nn1-c1ccc(Cc2n[nH]c3cnc(-c4c(OC)ncnc4C4CC4)nc23)cc1 | > 7.00 |
| COCCc1[nH]c2cnc(-c3c(OC)ncnc3C3CC3)nc2c1Cc1ccc(-c2nc(C(F)(F)F)cn2C)cc1 | > 7.00 |
| CC(C)c1ccccc1-c1ncc2c(n1)c(Cc1ccc(-c3nc(C(F)(F)F)cn3C)cc1)cn2CCO | 6.60 to 7.00 |
| CC(C)Oc1ncnc(C2CC2)c1-c1ncc2[nH]cc(Cc3ccc(-c4nc(C(F)(F)F)cn4C)cc3)c2n1 | > 7.00 |
| COc1ncnc(C2CC2)c1-c1ncc2[nH]cc(C(O)(c3ccc(-c4nc(C(F)(F)F)cn4C)cc3)C(C)C)c2n1 (stereo not drawn) | 6.60 to 7.00 |
| COc1ncnc(C2CC2)c1-c1ncc2nn(C)c(Cc3ccc(-c4nc(C(F)(F)F)cn4C)cc3)c2n1 | 6.60 to 7.00 |
| Cn1cc(C(F)(F)F)nc1-c1ccc(Cc2c[nH]c3cnc(-c4cccnc4N4CCC4)nc23)cc1 | 5.00 to 6.60 |
| [2H]C([2H])([2H])n1cc(C(F)(F)F)nc1-c1ccc(Cc2n[nH]c3cnc(-c4c(OC)ncnc4C4CC4)nc23)cc1 | > 7.00 |
| COc1ncnc(C2CC2)c1-c1ncc2[nH]cc(Cc3ccc(-c4nc(C(F)(F)F)cn4C)c(C)c3)c2n1 | > 7.00 |
| COc1ncnc(C2CC2)c1-c1nc(F)c2[nH]cc(Cc3ccc(-c4nc(C(F)(F)F)cn4C)cc3)c2n1 | 5.00 to 6.60 |
| COc1ncnc(C2CC2)c1-c1ncc2[nH]cc(Cc3ccc(-c4nc(C(F)(F)F)cn4C4CN(C)C4)cc3)c2n1 | 6.60 to 7.00 |
| Cn1cc(C(F)(F)F)nc1-c1ccc(C(O)c2c[nH]c3cnc(-c4c(OC(F)F)ncnc4C4CC4)nc23)cc1 (single isomer, unassigned) [Compound 103] | > 7.00 |
| COc1ncnc(C2CC2)c1-c1ncc2nn(CC(F)(F)F)c(Cc3ccc(-c4nc(C(F)(F)F)cn4C)cc3)c2n1 | > 7.00 |
| CC(C)n1cc(C(F)(F)F)nc1-c1ccc(Cc2c[nH]c3cnc(-c4c(OC(F)F)ncnc4C4CC4)nc23)cc1 | > 7.00 |
| COc1ncnc(C2CC2(F)F)c1-c1ncc2[nH]cc(Cc3ccc(-c4nc(C(F)(F)F)cn4C)cc3)c2n1 (stereo not drawn) | > 7.00 |
| CCn1cc(C(F)(F)F)nc1-c1ccc(Cc2c[nH]c3cnc(-c4c(OC)ncnc4C4CC4)nc23)cc1 | 6.60 to 7.00 |
| Cn1cc(C(F)(F)F)nc1-c1ccc(Cc2n[nH]c3cnc(-c4c(OC(F)F)ncnc4C4CC4)nc23)cc1 | > 7.00 |
| COc1ncnc(C2CC2)c1-c1ncc2[nH]cc(C(C)c3ccc(-c4nc(C(F)(F)F)cn4C)cc3)c2n1 (single isomer, unassigned) | > 7.00 |
| COc1ncnc(C2CC2)c1-c1ncc2[nH]cc(C3(c4ccc(-c5nc(C(F)(F)F)cn5C)cc4)CC3)c2n1 | 6.60 to 7.00 |
| CC(C)c1ccccc1-c1ncc2[nH]cc(Cc3ccc(-c4nc(C(F)(F)F)cn4C)cc3)c2n1 | > 7.00 |
| COc1ncnc(C2CC2)c1-c1ncc2[nH]cc(Cc3ccc(-n4nc(C(F)(F)F)cc4C)c(F)c3)c2n1 | > 7.00 |
| COc1ncnc(C2CC2)c1-c1nc(C(F)(F)F)c2[nH]nc(Cc3ccc(-c4nc(C(F)(F)F)cn4C)cc3)c2n1 | > 7.00 |
| COc1ncnc(C2CC2)c1-c1ncc2[nH]cc(Oc3ccc(-c4nc(C(F)(F)F)cn4C)cc3)c2n1 | 5.00 to 6.60 |
| COc1ncnc(C2(F)CC2)c1-c1ncc2[nH]nc(Cc3ccc(-c4nc(C(F)(F)F)cn4C)cc3)c2n1 | > 7.00 |
| COc1ncnc(C2CC2)c1-c1nc(C(F)(F)F)c2[nH]cc(Cc3ccc(-c4nc(C(F)(F)F)cn4C)cc3)c2n1 | > 7.00 |
| CC(C)c1ccccc1-c1ncc2[nH]cc([C@@H](C)c3ccc(-c4nc(C(F)(F)F)cn4C)cc3)c2n1 (single isomer, unassigned) | > 7.00 |
